molecular target: AgMyo5; test: SPOT peptide array binding signal intensity (averaged, normalized) (arbitrary units (background-subtracted, floor 0; scale differs between SH3 domains)); higher = stronger binding of the SH3 domain to the peptide
Reported endpoint: SPOT peptide array binding signal intensity
Enter the number alone.

TEVPIPRRPPPPQAA: 938
LLLLFVPDSPYDPAI: 1

Ask | // query SPOT peptide array binding signal intensity value for entry "IKTRSVPKIPSIESV"
Reply | 0.75

Ask | Fill in: SPOT peptide array binding signal intensity of "LPPPPPPPPPPPLPQ" is ___
Reply | 640
